Tested on: MET
Test: MET biochemical kinase assay
Set-up: species or system human; concentration or dose not given beside the values
Endpoint label: Met Kinase % Inhibition (%)
Please state the figure in %; there is no need to write the unit.

Q: For the compound `CCOc1ccccc1C=C1C(=O)Nc2c(Br)cc(Br)cc21` , give its reported Met Kinase % Inhibition.
Result: 46.1

Q: For the compound `CN1C(=O)C(=C2C(=O)Nc3ccc(CCCl)cc32)c2ccccc21` , give its reported Met Kinase % Inhibition.
Result: 10.3

Q: For the compound `Cc1cc(C=C2C(=O)Nc3ccc(CCCl)cc32)[nH]n1` , give its reported Met Kinase % Inhibition.
Result: 15.6

Q: For the compound `CC(C)(C)c1cc(C=C2C(=O)Nc3c(Br)cc(Br)cc32)cc(C(C)(C)C)c1O` , give its reported Met Kinase % Inhibition.
Result: 23.9

Q: For the compound `O=C1Nc2ccc(S(=O)(=O)Nc3ccc(C(F)(F)F)cc3)cc2C1=Cc1cccn1-c1ccc(Cl)cc1` , give its reported Met Kinase % Inhibition.
Result: 27.0

Q: For the compound `Cc1c(O)ccc(C=C2C(=O)Nc3ccc(CCCl)cc32)c1O` , give its reported Met Kinase % Inhibition.
Result: 27.0
